Tested on: Candida albicans
test-method-notes: Antifungal activity against Candida albicans MTCC 183 after 120 hrs by serial tube dilution method
Format: functional
condition-details: MTCC 183, 120 h
assay-readout: MIC (µg/mL)

> print(dat)
                           molecular.string  assay.readout  observed.value
1  O=[N+]([O-])c1cccc(-c2c3c(nn2-c2ccccc2)-c2ccccc2C3)c1            MIC              50
2  O=[N+]([O-])c1ccc(-c2c3c(nn2-c2ccccc2)-c2ccccc2C3)cc1            MIC              50
3  Clc1ccc(-c2c3c(nn2-c2ccccc2)-c2ccccc2C3)cc1            MIC              50
4  O=[N+]([O-])c1ccc(-c2nn(-c3ccccc3)cc2-c2c3c(nn2-c2ccccc2)-c2ccccc2C3)cc1            MIC              50

====

measured-on: Cyclin-dependent kinase 2 (Homo sapiens, UniProt P24941)
test-method-notes: Inhibition of CDK2 (unknown origin)
assay-readout: IC50

> print(dat)
                           molecular.string  assay.readout  observed.value
1  COc1ccc(-c2[nH]nc3c2C(=O)c2c(NC(=O)CN4CCN(C(=N)N)CC4)cccc2-3)cc1           IC50           13 nM
2  COc1ccc(-c2n[nH]c3c2C(=O)c2c(C=O)cccc2-3)cc1           IC50           57 nM

====

Test system: Bacillus subtilis
test-method-notes: Antibacterial activity against Bacillus subtilis MTCC 441 assessed as zone of inhibition
Assay type: functional
assay-readout: inhibition zone (IZ) (mm)

> print(dat)
                           molecular.string  measure.unit  observed.value
1  O=[N+]([O-])c1ccc(-c2c3c(nn2-c2ccccc2)-c2ccccc2C3)cc1            mm              18
2  O=[N+]([O-])c1ccc(-c2nn(-c3ccccc3)cc2-c2c3c(nn2-c2ccccc2)-c2ccccc2C3)cc1            mm              20
3  Clc1ccc(-c2nn(-c3ccccc3)cc2-c2c3c(nn2-c2ccccc2)-c2ccccc2C3)cc1            mm              17
4  O=[N+]([O-])c1cccc(-c2c3c(nn2-c2ccccc2)-c2ccccc2C3)c1            mm              17

====

Test system: Bacillus subtilis
test-method-notes: Antibacterial activity against Bacillus subtilis MTCC 441 after 48 hrs by serial tube dilution method
Assay type: functional
condition-details: MTCC 441, 48 h
assay-readout: MIC (µg/mL)

> print(dat)
                                   molecule  observed.value
1  O=[N+]([O-])c1ccc(-c2nn(-c3ccccc3)cc2-c2c3c(nn2-c2ccccc2)-c2ccccc2C3)cc1              50
2  O=[N+]([O-])c1cccc(-c2c3c(nn2-c2ccccc2)-c2ccccc2C3)c1              50
3  Clc1ccc(-c2nn(-c3ccccc3)cc2-c2c3c(nn2-c2ccccc2)-c2ccccc2C3)cc1              50
4  O=[N+]([O-])c1ccc(-c2c3c(nn2-c2ccccc2)-c2ccccc2C3)cc1              50
5  COc1cc2c(cc1OC)C1=NN(C(N)=S)C(c3ccc(F)cc3)C1C2 (stereo not given)               4
